target: Rho-A (Homo sapiens (Human), UniProt P61586); experiment: Rho inhibition assay (labeled GTP); type: binding; conditions: read-out: Rho-A % Inh.
Sequence (P61586 whole entry): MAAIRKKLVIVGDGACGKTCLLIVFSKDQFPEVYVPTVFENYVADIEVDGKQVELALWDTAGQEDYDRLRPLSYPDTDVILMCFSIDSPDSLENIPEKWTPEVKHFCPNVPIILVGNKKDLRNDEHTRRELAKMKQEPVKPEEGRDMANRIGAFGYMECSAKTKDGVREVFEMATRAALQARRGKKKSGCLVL
ENDPOINT LABEL: inhibition at 20 µM

>>> reported_value("Nc1nc(-c2ccccn2)nc(C(=O)NCCc2ccncc2)c1Oc1ccccc1 [drawing 3869]")
"25 to 50%"
>>> reported_value("Cn1ccnc1-c1nc(NCCOC(F)(F)F)c2c(-c3ccccc3)c(-c3ccccc3)sc2n1 [drawing 3886]")
"25 to 50%"
>>> reported_value("Cn1ccnc1-c1nc(O)c2sc(-c3ccccc3)c(-c3ccccc3Cl)c2n1 [drawing 3913]")
"51 to 75%"
>>> reported_value("COc1cccc(-c2csc3c(O)nc(-c4ccccn4)nc23)c1 [drawing 3744]")
"51 to 75%"
